TARGET UNDER TEST: IL-13 (Homo sapiens (Human), UniProt P35225 35-146, limits assumed)
Sequence (P35225 35-146 limits assumed): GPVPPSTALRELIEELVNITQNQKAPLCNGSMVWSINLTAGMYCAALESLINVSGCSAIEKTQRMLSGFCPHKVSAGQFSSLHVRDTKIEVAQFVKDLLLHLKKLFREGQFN
ASSAY PROTOCOL: Biacore
ENDPOINT: koff (s⁻¹)
Give bare numbers, in s⁻¹.

Guide cases for koff, answers given:
M451 (antibody, V domains shown, anti-IL-13, human IgG1) VH: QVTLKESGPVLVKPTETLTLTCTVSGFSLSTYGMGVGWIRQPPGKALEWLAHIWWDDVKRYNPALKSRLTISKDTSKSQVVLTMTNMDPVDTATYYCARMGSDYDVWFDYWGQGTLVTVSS VL: EIVLTQSPATLSLSPGERATLSCRASKSISKYLAWYQQKPGQAPRLLIYSGSTLQSGIPARFSGSGSGTDFTLTISSLEPEDFAVYYCQQPLDVPYTFGQGTKLEIK
0.000333
M457 (antibody, V domains shown, anti-IL-13, human IgG1) VH: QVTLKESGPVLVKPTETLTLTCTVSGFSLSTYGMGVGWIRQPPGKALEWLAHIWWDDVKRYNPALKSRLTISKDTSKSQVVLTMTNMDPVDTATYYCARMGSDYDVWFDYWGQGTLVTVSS VL: EIVLTQSPATLSLSPGERATLSCRASKSISKYLAWYQQKPGQAPRLLIYSGSTLQSGIPARFSGSGSGTDFTLTISSLEPEDFAVYYCQQHDYAPYTFGQGTKLEIK
0.000214

Here is another binder to look at.
Q: Which koff value belongs to M443 (antibody, V domains shown, anti-IL-13, human IgG1) VH: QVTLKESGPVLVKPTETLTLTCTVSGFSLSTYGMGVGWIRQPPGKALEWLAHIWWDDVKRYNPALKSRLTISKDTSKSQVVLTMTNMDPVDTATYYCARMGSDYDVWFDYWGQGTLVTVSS VL: EIVLTQSPATLSLSPGERATLSCRASKSISKYLAWYQQKPGQAPRLLIYSGSTLQSGIPARFSGSGSGTDFTLTISSLEPEDFAVYYCQQHSWGPYTFGQGTKLEIK ?
Ans: 7.8e-05

The measurements presented in this section are drawn from patent US20100261620A1.
